# experiment.description: optical density shifts of acrAB sulA E. coli – strain DRC41, OD650, 48 h, E. coli filamentation inducer project, primary screen (AID 1152);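 note: E. coli MC1000 strain DRC41 lacking acrAB efflux pump and sulA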
# setup.conditions: higher = more signal, called active from +8 up or from −8 down
Label N if z-score falls below -0.2; label Y in every other case.

Worked examples follow.
- compound: "COC(=O)[C@@]1(Cc2ccc(F)cc2)[C@H]2c3cc(C(=O)N(C)C)n(CCc4ccc(OC)c(Br)c4)c3C[C@H]2CN1C(=O)c1ccccc1"
  assigned.label: "N"
- compound: "CCOC(=O)C1=C[C@@H](C(C)C)N(S(=O)(=O)c2ccc(C)cc2)[C@H]1c1ccc(C(F)(F)F)cc1"
  assigned.label: "N"
- compound: "Cc1ccc(S[C@]2(C(=O)NC(C)C)CC(=O)N(Cc3cc(C(F)(F)F)cc(C(F)(F)F)c3)[C@@H]2c2ccc(CO)cc2)cc1"
  assigned.label: "Y"
- compound: "Cn1cccc1C(O)C1C=CC2C(=O)N(c3ccccc3)C(=O)C2N1Nc1ccccc1 (configuration not stated)"
  assigned.label: "N"
- compound: "[N-]=[N+]=Nc1ccccc1C[C@]1(C(=O)NCC(O)CO)COC(c2ccc(OCCCO)cc2)=N1 (some centres not stated)"
  assigned.label: "Y"
- compound: "C=C(/C(=C/C[C@H](OC(C)=O)c1ccc(CO)o1)c1cnc2ccccc2c1)C(C)C"
  assigned.label: "Y"

Could you verify whether the entry COc1ccc([Si](C)(C)[C@@H]2[C@@H](CC(=O)N(CCO)Cc3ccccc3)O[C@]3(C(=O)N(Cc4cccc(N5CCCCC5=O)c4)c4ccccc43)[C@H]2C)cc1 shows z-score of no less than -0.2?
Y

Origin of the recorded values: PubChem BioAssay
